# Target: recombinant human secretory phospholipase A2 (Homo sapiens, UniProt P14555)
# Sequence (P14555 21-144): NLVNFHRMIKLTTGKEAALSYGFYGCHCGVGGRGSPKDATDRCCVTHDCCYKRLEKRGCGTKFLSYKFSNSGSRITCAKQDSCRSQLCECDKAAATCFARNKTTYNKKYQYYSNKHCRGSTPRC
# Experiment: Inhibition Test of Human Secretory Phospholipase A2 (chromogenic assay)
# Conditions Used: sPLA2 50 ng/well, 40° C., 30 minutes, OD 405 nm, 96 well microtiterplate
# maps each entry to its IC50
Answer format: numeric, nM implied, no suffix.

May I ask what IC50 has been recorded for CCc1c(C(=O)C(N)=O)c2c(OCC(=O)OC)nc(C)cn2c1Cc1ccc(C)s1 [Compound I-85] ?
370

May I ask what IC50 has been recorded for Cc1cn2c(Cc3ccc(F)cc3)c(C3CC3)c(C(=O)C(N)=O)c2c(OCC(=O)O)n1 [Compound I-78] ?
60

May I ask what IC50 has been recorded for CCc1c(C(=O)C(N)=O)c2c(OCC(=O)O)nc(C)cn2c1Cc1ccccc1-c1cccs1 [Compound I-52] ?
5

May I ask what IC50 has been recorded for CCc1c(C(=O)C(N)=O)c2c(OCC(=O)O)nc(C3CCCCC3)cn2c1Cc1ccccc1 [Compound I-80] ?
6
